From: ChEMBL document CHEMBL1201862

- Test system: COLO 205
- PROCEDURE DETAILS: NCI tumour cell line growth inhibition, 48 h
Activity calls are given as the source filed them. Rule as the data show it: active = GI50 up to about 1.1 µM and inactive = higher.
OBSERVATION TYPE: GI50

Solved entries (count: 4):
Cc1ccc(NCC(=O)N2CC(=O)Nc3ccccc32)cc1 : > 100 µM (inactive)
COc1ccc(/C=C/C(=O)c2cc(C(C)(C)C)c(O)c(C(C)(C)C)c2)cc1OC : 5.74 µM (inactive)
CC(=O)N1C(=O)/C(=C\C(=O)c2ccc(Cl)cc2)c2ccccc21 : 9.44 µM (inactive)
O=C1CSC(/C=C/c2ccccc2)N1c1ccc(-c2ccc(-n3c(-c4ccccc4)nc4ccccc4c3=O)cc2)cc1 (stereo not given) : 18.2 µM (inactive)

Please state GI50 for every compound in the list that follows.
1. CCc1cccc(C(C)C)c1NC(=O)C(=O)C(Cc1nc2ccccc2nc1O)C(=O)OC (stereo not given)
2. O=C1c2ccccc2C(=O)c2c1ccc1conc21
3. CCOC(=O)C1CC/C(=C(/C#N)C(=O)OC)N1 (stereo not given)
4. CC1=C(C(=O)OCc2ccncc2)C(C2=C(C)SCCS2)C(C(=O)OCc2ccncc2)=C(C)N1
5. C[Si](C)(C)/N=C1\N2C(=NC1(C(F)(F)F)C(F)(F)F)Sc1ccccc12
6. COc1ccc2c(=O)cc(-c3ccc(OC)c(OC)c3OC)oc2c1

1: 43.8 µM (inactive); 2: 5.65 µM (inactive); 3: > 100 µM (inactive); 4: 22.2 µM (inactive); 5: > 50 µM (inactive); 6: > 71.8 µM (inactive)

====

- System: HCT-116
- PROCEDURE DETAILS: NCI tumour cell line growth inhibition, 48 h
Active and inactive are the calls of the source. Cut-off read from the data, not from the text of the source: active = GI50 up to about 1.1 µM and inactive = higher.
OBSERVATION TYPE: GI50

Solved entries (count: 5):
CCCCCCCCCCCCO[PH](=O)OCCCCCCCCCCCC : > 100 µM (inactive)
O=[N+]([O-])C1(C2([N+](=O)[O-])CCCC2)CCCC1 : > 100 µM (inactive)
CCC(=O)N(O)C(C)(C)C : > 100 µM (inactive)
Cc1ccc(S(=O)(=O)Nc2ccccc2C(C)(C)C)cc1 : 15.2 µM (inactive)
N#Cc1ccc(OCc2ccc3nc(-c4ccccc4)c(Cl)nc3c2)cc1 : > 100 µM (inactive)

Please state GI50 for every compound in the list that follows.
1. O=C1/C(=C/c2ccc(C(=O)O)cc2)CNC/C1=C\c1ccc(C(=O)O)cc1
2. COc1cccc(N2C(=O)C3c4[nH]c5ccccc5c4C4c5ccccc5CCC4C3C2=O)c1 (stereo unspecified)
3. CC1=Nc2ccccc2C1C(Cc1ccccc1N)c1c(C)[nH]c2ccccc12 (stereo unspecified)

["> 100 µM (inactive)", "4.34 µM (inactive)", "16.9 µM (inactive)"]

Please state GI50 for every compound in the list that follows.
1. Cn1c(N/N=C/c2ccc(Cl)cc2)nc(-c2ccc(Cl)cc2)c(C#N)c1=O
2. C=CCOC(=O)NC1C(OC(C)[C@@H](NC(=O)OCc2ccccc2)C(=O)OC(C)(C)C)OC(COC(C)=O)C(OC(C)=O)C1OC(C)=O (stereo partly specified)
3. COC(=O)c1oc([N+](=O)[O-])c(Cl)c1Cl
4. O=C1C(Cl)C(c2cccc(O)c2)N1n1cnc2ccccc2c1=O (stereo unspecified)
5. COc1ccc(N2C(=O)CC(=O)N(C(=O)CCCCCCCCC(=O)N3C(=O)CC(=O)N(c4ccc(OC)cc4)C3=S)C2=S)cc1
6. CCN(CC)CCCC(C)Nc1ccnc2cc3ccccc3cc12 (stereo unspecified)
7. CC1=C[C@H](C[C@]2(C)c3c(c4c(C)cccc4oc3=O)O[C@@H]2C)OC1=O

1. 13.5 µM (inactive)
2. > 100 µM (inactive)
3. 6.24 µM (inactive)
4. 89.9 µM (inactive)
5. > 100 µM (inactive)
6. 5.75 µM (inactive)
7. 15.7 µM (inactive)

Please state GI50 for every compound in the list that follows.
1. Cc1cc(C)nc(NS(=O)(=O)c2ccc(Nc3c4ccc(Cl)cc4nc4c(C(=O)NCCN(C)C)cccc34)cc2)n1
2. COC(=O)/C(=N\N)C(C(=O)C(=O)Nc1cc(Cl)ccc1Cl)c1nc2ccc([N+](=O)[O-])cc2nc1O (stereo unspecified)
3. O=C1CCSCCC(=O)Nc2ccccc2N1
4. N#C/C(=C/n1c(=S)[nH]c2ccccc21)C(N)=O
5. CN(C)C(=O)C(NCCO)c1ccccc1 (stereo unspecified)
6. Cc1ccc(C2CC(c3ccco3)=NN2c2ccccc2)o1 (stereo unspecified)

1: > 100 µM (inactive); 2: > 100 µM (inactive); 3: > 100 µM (inactive); 4: > 100 µM (inactive); 5: 53.7 µM (inactive); 6: > 100 µM (inactive)
